# Tested on: PC-3 prostate
# test_details: NCI-60 one-dose screen, 48 h
# condition_summary: 10 µM unless noted
The panel holds about 83,000 compounds, 20% with a hit somewhere; the sample as a whole holds those more often. Activity calls are given as the source filed them. How the source made its calls: active means growth percent below 10; inactive means the rest.
Outcome codes: active, inactive

| molecule | category |
| --- | --- |
| N#CC(N)c1ccccc1 (stereo unspecified) | inactive |
| COc1ccc2c(c1)C1(C)CCN(C)CC(C1)C2O (stereo unspecified) | inactive |
| C[C@]12CC[C@H]3[C@@H](CC=C4c5nc(-c6ccc(Br)cc6)sc5CC[C@@]43C)[C@@H]1CC[C@@H]2O | inactive |
| CC12CCC3C(CCC4CC(O)CCC43C)C1CCC2=O (stereo unspecified) | inactive |
| C[C@]12CC[C@H]3[C@@H](CC=C4c5nc(N)sc5CC[C@@]43C)[C@@H]1CC[C@@H]2O | inactive |
| COc1ccn(C)c(=O)c1C#N | inactive |
| CC(C)COC(=O)Cc1ccccc1 | inactive |
| C[N+]1(C)CCCC1c1cccnc1 (stereo unspecified) | inactive |
| COc1ccc(N(CC(=O)NCCC[Te]c2ccccc2)C(=O)c2ccccc2)cc1 | active |
| O=S1(=O)OCCO1 | inactive |
| CC[C@H](C)[C@H](NC(=O)C12CC(NC)(C1)C2)C(=O)N(C)[C@H](C[C@@H](OC(C)=O)c1nc(C(=O)N[C@@H](Cc2ccccc2)C[C@H](C)C(=O)OC)cs1)C(C)C | inactive |
| CSc1cc(/C=C(\C)[C@@H]2C[C@@H]3O[C@]3(C)CCC[C@H](C)[C@H](O)[C@@H](C)C(=O)C(C)(C)[C@@H](O)CC(=O)O2)n(CCNC(=O)OC(C)(C)C)n1 | inactive |
| CC(=O)Nc1nc2c(s1)C1=CC[C@H]3[C@@H]4CC[C@H](OC(C)=O)[C@@]4(C)CC[C@@H]3[C@@]1(C)CC2 | inactive |
| CC[PH+](CC)CC.O=COC1OC([S-])C(OC=O)C(OC=O)C1OC=O.[Au+] (stereo unspecified) | active |
| C/C(=C(\c1ccc(OCCN2CCOCC2)cc1)c1ccc(OC(=O)Cc2ccccc2)cc1)c1ccc(Cl)cc1 | inactive |
| Cc1cc[c-]cc1.Fc1c[c-]c(-c2ccccn2)c(F)c1.[Pt+2].c1ccc([PH+](c2ccccc2)c2ccccn2)cc1 | inactive |
| CN1C2CCC1[C@@H](COC(=O)c1ccccc1)[C@@H](O)C2 (stereo partly specified) | inactive |
| O=[P+](O)c1cccnc1 | inactive |
| COc1ccc(N)cc1N | inactive |
| CC/C(=C(\c1ccc(OCCN2CCOCC2)cc1)c1ccc(OC(=O)Cc2ccccc2)cc1)c1ccc(Cl)cc1 | inactive |
| C[C@H](O)CCC(=O)c1ccoc1 | inactive |
| COc1ccc2c(c1)c(-c1nc(-c3c[nH]c4ncccc34)cs1)cn2CCCCN1CCOCC1 | inactive |
| N#Cc1ccc(Cl)cc1 | inactive |
| C=C[Se]CC(=O)/C=C/c1ccccc1 | inactive |
| O=C(O)c1ccccc1N(CCO)CCCl | inactive |
| O=C1C=C(N2CC2)c2ccccc2C1=O | inactive |

* * *

# Tested on: UACC-257 melanoma
# test_details: NCI-60 one-dose screen, 48 h (100 = growth as untreated, 0 = no growth, -100 = all killed)
# condition_summary: 10 µM unless noted
Compounds without any hit were thinned out: in the full panel of roughly 83,000, 20% have a hit.

| compound | unit_abbreviation | growth |
| --- | --- | --- |
| O=S(=O)(F)c1cccc(Cl)c1C[P+](c1ccccc1)(c1ccccc1)c1ccccc1 | % | 89.7 |
| CC1(C)N(Nc2ccccc2)C(=O)C2CCCN21 (stereo not drawn) | % | 89.2 |
| CCOC(=O)c1ccccc1C(=O)OCC | % | 91.3 |

* * *

# System: EKVX NSCLC
# test_details: NCI-60 one-dose screen, 48 h (100 = growth as untreated, 0 = no growth, -100 = all killed)
# condition_summary: 10 µM unless noted
Compounds without any hit were thinned out: in the full panel of roughly 83,000, 20% have a hit.
Each item that follows carries a reported growth.

| molecule | assay_target | growth, % |
| --- | --- | --- |
| C[C@H](O)CCC(=O)c1ccoc1 | EKVX NSCLC | 104 |
| N#CCc1ccc(CC#N)cc1 | EKVX NSCLC | 97.7 |
| COc1cc(-c2ccc(N)c(OC)c2)ccc1N | EKVX NSCLC | 96 |
| CCCC(C)SP(=S)(SC(C)CCC)SC(C)CCC (centres undefined) | EKVX NSCLC | 96.7 |
| CCN1C(=O)CC(=O)N(CC)C1=S | EKVX NSCLC | 108 |
| O=C1C=C(N2CC2)c2ccccc2C1=O | EKVX NSCLC | 114 |
| CO[C@H]1[C@H](O[C@@H]2C[C@@H]3C/C=C/C(=O)O[C@@H](CO)C[C@H](O)[C@@H]4C[C@H](C)[C@H](C/C=C\C=C\[C@H](C)C[C@H](C2)O3)O4)O[C@@H](C)[C@H](O)[C@H]1O | EKVX NSCLC | 28.7 |
| COC(=O)[C@@H](C)C[C@H](Cc1ccccc1)NC(=O)c1cccc([C@@H](C[C@H](C(C)C)N(C)C(=O)[C@@H](NC(=O)[C@H]2CCCCN2C)C2CC2)OC(C)=O)n1 | EKVX NSCLC | 54.6 |
| Cc1cc2c(cc1-c1ccnc(/C=C/C(=O)O)c1)C(C)(C)CCC2(C)C | EKVX NSCLC | 86.1 |
| C=CCOC(=O)C(Br)CC (centres undefined) | EKVX NSCLC | 107 |
| CC[C@H](C)[C@H](NC(=O)CN(C)C)C(=O)N(C)[C@H](C[C@@H](OC(C)=O)c1nc(C(=O)NC23CC(C(=O)OC)(C2)C3)cs1)C(C)C | EKVX NSCLC | 32.8 |
| N#CC(C#N)=Cc1cccc(F)c1 | EKVX NSCLC | 102 |
| CC[C@H](CC[C@@H](C)[C@H]1CC[C@H]2[C@@H]3CC[C@H]4C[C@]5(CC[C@]4(C)[C@H]3CC[C@]12C)OO[C@](C)(C(F)(F)F)O5)C(C)C | EKVX NSCLC | 96.2 |
| O=C=Nc1ccc(Br)cc1 | EKVX NSCLC | 102 |
| Cc1c2ccncc2c(C)c2c1[nH]c1ccccc12 | EKVX NSCLC | -21.8 |
| CCCC[C@H]1C(=O)O[C@H](C)[C@H](NC(=O)c2cccc(NC=O)c2O)C(=O)O[C@@H](C)[C@@H]1OC(=O)CC(C)C | EKVX NSCLC | 57.7 |
| O=C(NC1=NCC[Se]1)c1ccccc1O | EKVX NSCLC | 73 |
| CCOC(=O)c1ccccc1C(=O)OCC | EKVX NSCLC | 80.3 |
| CC[C@H](C)[C@H](NC(=O)c1cnccn1)C(=O)N(C)[C@H](C[C@@H](OC(C)=O)c1nc(C(=O)N[C@@H](Cc2ccccc2)C[C@H](C)C(=O)OC)cs1)C(C)C | EKVX NSCLC | 43.9 |
| CC12CCC3C(CCC4CC(O)CCC43C)C1CCC2=O (centres undefined) | EKVX NSCLC | 73.4 |
| COc1ccc(C(C#N)C(C)=O)cc1 (centres undefined) | EKVX NSCLC | 108 |
| O=C(Cc1ccccc1)c1ccccc1 | EKVX NSCLC | 103 |
| Cc1cc(NC(=O)NCCCOc2ccc(N3C(N)=NC(N)=NC3(C)C)cc2Cl)ccc1S(=O)(=O)F | EKVX NSCLC | 43 |
| Nc1c(Cl)c(Cl)nc(C(=O)O)c1Cl | EKVX NSCLC | 86.5 |
| C[N+]1(CC#CC[N+]2(C)CCCC2)CCCC1 | EKVX NSCLC | 97.5 |
| C[C@]12CCc3nc(-c4ccc(O)c(O)c4)sc3C1=CC[C@@H]1[C@@H]2CC[C@]2(C)C(=O)CC[C@@H]12 | EKVX NSCLC | 95.7 |
| C[C@]12CCc3sc(Nc4ccc(O)cc4)nc3C1=CC[C@@H]1[C@@H]2CC[C@]2(C)C(=O)CC[C@@H]12 | EKVX NSCLC | 98 |
| c1ccc2c(c1)sc1ccccc12 | EKVX NSCLC | 93.6 |
| COc1cc(/C=C\[N+](=O)[O-])ccc1OCc1ccccc1 | EKVX NSCLC | 91.5 |
| C(=NC1CCCCC1)=NC1CCCCC1 | EKVX NSCLC | 41.3 |
| COc1ccc(CN)cc1OC | EKVX NSCLC | 121 |
| C[C@]12CC[C@H]3[C@@H](C[C@@H]4SC(Nc5ccccc5)=N[C@@]45C/C(=N/O)CC[C@]35C)[C@@H]1CCC2=O | EKVX NSCLC | 86.6 |
| C=C1C(=O)OC2CC3(C)OC3C3OC3C3=CC(OC3=O)C12 (centres undefined) | EKVX NSCLC | 111 |
| CCN1C(=O)NC(=O)C(C)(N2C(=O)c3c(F)c(F)c(F)c(F)c3C2=O)C1=O (centres undefined) | EKVX NSCLC | 104 |
